Assay: Oral bioavailability (PO) and pharmacokinetics assay
Type: in vivo, mice
Conditions: male, Sprague-Dawley, plasma; mouse, IP (5 mg/kg)
Method: The pharmacokinetics and oral bioavailability of various compounds was evaluated following IV or PO administration to fasted male Sprague-Dawley mice (N=3/route/dose). […] Blood samples (0.250 mL) were collected into EDTA tubes then processed to generate plasma samples. […] Plasma concentrations of each compound were determined using LC-MS/MS with a lower limit of quantitation of 1.0 ng/mL. The pharmacokinetic parameters were determined by non-compartmental methods using WinNonlin. […]
endpointLabel: Tmax (h)
Return type: number; implicit unit h.

Request: Can you look up the measured Tmax of Cc1ccccc1C(=O)Nc1nc(NC(=O)c2ccccc2C)n(-c2ccc(OC(F)(F)F)cc2)n1 for me?
Result: 1.33

---

test: Oral bioavailability (PO) and pharmacokinetics assay; assay type: in vivo, mice; settings: male, Sprague-Dawley, plasma; mouse, IP (5 mg/kg)
endpointLabel: Cmax (ng/mL)
The response must be a number in ng/mL with no trailing unit.

Request: Given Cc1ccccc1C(=O)Nc1nc(NC(=O)c2ccccc2C)n(-c2ccc(OC(F)(F)F)cc2)n1 , state its recorded Cmax.
Result: 1400

---

Listed molecules paired with reported half-life at 1 μM
experiment: Microsomal stability assay, human liver microsomes; format: in vitro ADME; conditions: pH 7.4; human liver microsomes 1.0 mg/mL, 1 μM compound, NADPH; read-out: HLM t1/2
Unit h implied. Number only.

# compoundString, number
measured = [
    ("Cc1ccccc1C(=O)Nc1nc(-c2ccccc2O)nn1-c1ccc(C(F)(F)F)cc1", 2.63),
    ("Cc1ccccc1C(=O)Nc1nc(-c2cc(Cl)ccc2O)nn1-c1ccc(OC(F)(F)F)cc1", 2.75),
    ("COc1ccccc1-c1nc(NC(=O)c2ccccc2C)n(-c2ccc(OC(F)(F)F)cc2)n1", 2.22),
    ("Cc1ccc(O)c(-c2nc(NC(=O)c3ccccc3C)n(-c3ccc(OC(F)(F)F)cc3)n2)c1", 2.97),
    ("Cc1ccccc1C(=O)Nc1nc(-c2ccccc2O)nn1-c1cccc(F)c1", 0.7),
]

Request: Fill in the blank: the reported half-life at 1 μM of Cc1ccccc1C(=O)Nc1nc(NC(=O)c2ccccc2C)n(-c2cccc(Cl)c2)n1 is ____.
Result: 2.45

Request: Can you look up the measured half-life at 1 μM of Cc1ccccc1C(=O)Nc1nc(NC(=O)c2ccccc2C)n(-c2ccc(C(F)(F)F)cc2)n1 for me?
Result: 1.18

Request: Can you share its half-life at 1 μM? I mean this molecule: Cc1ccccc1C(=O)Nc1nc(NC(=O)c2ccccc2C)n(-c2ccc(F)c(F)c2)n1
Result: 3.4

Request: Give its half-life at 1 μM value. Item: Cc1ccccc1C(=O)Nc1nc(-c2ccccc2O)nn1-c1ccc(Cl)cc1
Result: 1.06

---

target: Parkin ligase (Homo sapiens, UniProt O60260); assay: Activity-Based Probe Assay using Ubiquitin vinyl sulfone probe (TR-FRET); assay type: biochemical; settings: heat activated Parkin, HA-Ub-VS probe, activation EC50; read-out: Probe Assay EC50 (μM) [Example 2]
Sequence (O60260 whole entry): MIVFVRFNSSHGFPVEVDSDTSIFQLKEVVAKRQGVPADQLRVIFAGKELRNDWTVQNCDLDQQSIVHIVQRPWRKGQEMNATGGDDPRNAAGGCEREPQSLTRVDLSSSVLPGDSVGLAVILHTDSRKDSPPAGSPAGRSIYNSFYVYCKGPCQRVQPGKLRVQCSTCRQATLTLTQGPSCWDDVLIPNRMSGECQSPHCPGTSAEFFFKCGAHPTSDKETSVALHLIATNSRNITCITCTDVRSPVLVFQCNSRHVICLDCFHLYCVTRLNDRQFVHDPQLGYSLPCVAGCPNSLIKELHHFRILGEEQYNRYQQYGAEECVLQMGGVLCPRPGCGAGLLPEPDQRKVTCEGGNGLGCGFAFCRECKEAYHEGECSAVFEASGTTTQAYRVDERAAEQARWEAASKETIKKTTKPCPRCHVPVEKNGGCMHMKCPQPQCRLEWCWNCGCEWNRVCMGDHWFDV
Each record here notes measured EC50.
// note: answer is a bare numeric in µM

Record excerpt, results attached:
# compound, EC50 [µM]
records = [
    ("Cc1ccccc1C(=O)Nc1nc(NC(=O)c2ccno2)n(-c2cccc(F)c2)n1 [Compound 73]", 12),
    ("Cc1ccccc1C(=O)Nc1nc(NC(=O)c2ccc(N=[N+]=[N-])cc2)nn1-c1ccc(OC(F)(F)F)cc1 [Compound 76]", 34),
    ("Cc1ccccc1C(=O)Nc1nc(NC(=O)c2ccncc2)nn1-c1ccc(C(F)(F)F)cc1 [Compound 85]", 3),
    ("Cc1ccccc1C(=O)Nc1nc(NCCc2ccccc2)nn1-c1ccc(C(F)(F)F)cc1 [Compound 103]", 1),
    ("O=C(Nc1nc(NC(=O)c2cccnc2)n(-c2cccc(F)c2)n1)c1cccnc1 [Compound 72]", 2),
]

Request: Lab note: need EC50 with Parkin ligase (Homo sapiens, UniProt O60260) for entry Cc1cccc(-c2nc(NC(=O)c3ccccc3C)n(-c3ccc(C(F)(F)F)cc3)n2)n1 [Compound 133] , please look it up.
Result: 1

Request: I'm curious: which EC50 was measured for O=C(Nc1nc(NC(=O)c2cccnc2)n(-c2ccc(C(F)(F)F)cc2)n1)c1cccnc1 [Compound 62] tested on Parkin ligase (Homo sapiens, UniProt O60260)?
Result: 8

Request: Field: EC50 (Parkin ligase (Homo sapiens, UniProt O60260)). Entry: C#Cc1ccccc1C(=O)Nc1nc(NC(=O)c2cccc(N=[N+]=[N-])c2)n(-c2ccccc2)n1 [Compound 8]
Result: 4

Request: Identify the measured EC50 of Cc1ccccc1C(=O)Nc1nc(NC(=O)C2CCCN2)nn1-c1ccccc1 (stereo not shown) [Compound 20] for Parkin ligase (Homo sapiens, UniProt O60260).
Result: 2

Request: Tell me reported EC50 for Cc1ccccc1C(=O)Nc1nc(NC(=O)C2CCCCN2)nn1-c1ccccc1 (stereo not shown) [Compound 51] , tested with Parkin ligase (Homo sapiens, UniProt O60260).
Result: 84

---

System: Ovarian OAW28 (OAW2B)
Test: Cancer cell proliferation assay (acid phosphatase)
Assay type: cell-based
Conditions: Homo sapiens, OAW-28; Table 6E
Experimental: Measurement of the inhibitive effect of compounds on cancer cell proliferation was performed. […] Assessment of cell proliferation in the presence of the compound was determined by the acid phosphatase assay. Following the incubation period of 72 hrs, media was removed from the plates. […] Colour development was monitored during this time. […] The plate was read in a dual beam plate reader at 405 nm with a reference wavelength of 620 nm. […]
endpointLabel: IC50 (nM)
I only need the number, in nM, no unit after it.

Request: Field request: IC50 | item: Cc1ccccc1C(=O)Nc1nc(NC(=O)c2ccccc2C)n(-c2ccc(OC(F)(F)F)cc2)n1
Result: 140

---

experiment: Oral bioavailability (PO) and pharmacokinetics assay; type: in vivo, mice; conditions: male, Sprague-Dawley, mouse, plasma, intraperitoneal, 5 mg/kg, IP (5 mg/kg) vs IV, read-out: F (%)
endpointLabel: bioavailability (%)
Please respond with the number in % and leave the unit unwritten.

Request: Recorded bioavailability of Cc1ccccc1C(=O)Nc1nc(NC(=O)c2ccccc2C)n(-c2ccc(OC(F)(F)F)cc2)n1 , please.
Result: 50.3

---

experiment: Oral bioavailability (PO) and pharmacokinetics assay; assay type: in vivo, mice; details: male, Sprague-Dawley, plasma; mouse, IP (5 mg/kg)
endpointLabel: AUC(0-t) (ng·h/mL)
Write the value in ng·h/mL as a bare number.

Request: Using the record for Cc1ccccc1C(=O)Nc1nc(NC(=O)c2ccccc2C)n(-c2ccc(OC(F)(F)F)cc2)n1 , report its AUC(0-t).
Result: 21500

---

system: A549 (lung); assay: Cancer cell proliferation assay (acid phosphatase); format: cell-based; details: Homo sapiens, A549, 72 h, Table 6A; 72 hrs; read-out: A549 IC50
endpointLabel: IC50 (nM)
Give just the number in nM; leave the unit off.

# compoundString, tgt, IC50 (nM)
rows = [
    ("Cc1ccnc(-c2nc(NC(=O)c3ccccc3C)n(-c3ccccc3)n2)c1", "A549 (lung)", 1200),
    ("Cc1ccccc1C(=O)Nc1nc(-c2cccc(F)n2)nn1-c1ccc(OC(F)(F)F)cc1", "A549 (lung)", 2500),
    ("Cc1ccccc1C(=O)Nc1nc(NC(=O)c2ccccc2C)n(-c2ccc(F)cc2F)n1", "A549 (lung)", 2500),
]

Request: Which IC50 is listed for Cc1ccccc1C(=O)Nc1nc(NC(=O)c2ccncc2)nn1-c1ccccc1 ?
Result: 2500

---

test: Oral bioavailability (PO) and pharmacokinetics assay; assay type: in vivo, mice; details: male, Sprague-Dawley, plasma; mouse, IV bolus (3 mg/kg)
endpointLabel: AUC(0-t) (µg·h/mL)
Give just the number in µg·h/mL; leave the unit off.

Request: For the compound shown here, Cc1ccccc1C(=O)Nc1nc(NC(=O)c2ccccc2C)n(-c2ccc(OC(F)(F)F)cc2)n1 [Compound 42] , give the reported AUC(0-t).
Result: 25.7

---

system: SKOV3 (ovarian); test: Cancer cell proliferation assay (acid phosphatase); type: cell-based; conditions: Homo sapiens, SK-OV-3; Table 6D, another set of cell proliferation assay
endpointLabel: EC50 (nM)
Give just the numeric value; nM need not be written.

Request: I would be grateful if you could share the reported EC50 for Cc1ccccc1C(=O)Nc1nc(NC(=O)c2ccccc2C)n(-c2ccc(OC(F)(F)F)cc2)n1 .
Result: 376

---

target: hERG potassium channel (Homo sapiens, UniProt Q12809); assay: Selectivity screen, radioligand displacement; assay type: binding; conditions: read-out: % Inhib Potassium Channel hERG (human)
Sequence (Q12809 whole entry): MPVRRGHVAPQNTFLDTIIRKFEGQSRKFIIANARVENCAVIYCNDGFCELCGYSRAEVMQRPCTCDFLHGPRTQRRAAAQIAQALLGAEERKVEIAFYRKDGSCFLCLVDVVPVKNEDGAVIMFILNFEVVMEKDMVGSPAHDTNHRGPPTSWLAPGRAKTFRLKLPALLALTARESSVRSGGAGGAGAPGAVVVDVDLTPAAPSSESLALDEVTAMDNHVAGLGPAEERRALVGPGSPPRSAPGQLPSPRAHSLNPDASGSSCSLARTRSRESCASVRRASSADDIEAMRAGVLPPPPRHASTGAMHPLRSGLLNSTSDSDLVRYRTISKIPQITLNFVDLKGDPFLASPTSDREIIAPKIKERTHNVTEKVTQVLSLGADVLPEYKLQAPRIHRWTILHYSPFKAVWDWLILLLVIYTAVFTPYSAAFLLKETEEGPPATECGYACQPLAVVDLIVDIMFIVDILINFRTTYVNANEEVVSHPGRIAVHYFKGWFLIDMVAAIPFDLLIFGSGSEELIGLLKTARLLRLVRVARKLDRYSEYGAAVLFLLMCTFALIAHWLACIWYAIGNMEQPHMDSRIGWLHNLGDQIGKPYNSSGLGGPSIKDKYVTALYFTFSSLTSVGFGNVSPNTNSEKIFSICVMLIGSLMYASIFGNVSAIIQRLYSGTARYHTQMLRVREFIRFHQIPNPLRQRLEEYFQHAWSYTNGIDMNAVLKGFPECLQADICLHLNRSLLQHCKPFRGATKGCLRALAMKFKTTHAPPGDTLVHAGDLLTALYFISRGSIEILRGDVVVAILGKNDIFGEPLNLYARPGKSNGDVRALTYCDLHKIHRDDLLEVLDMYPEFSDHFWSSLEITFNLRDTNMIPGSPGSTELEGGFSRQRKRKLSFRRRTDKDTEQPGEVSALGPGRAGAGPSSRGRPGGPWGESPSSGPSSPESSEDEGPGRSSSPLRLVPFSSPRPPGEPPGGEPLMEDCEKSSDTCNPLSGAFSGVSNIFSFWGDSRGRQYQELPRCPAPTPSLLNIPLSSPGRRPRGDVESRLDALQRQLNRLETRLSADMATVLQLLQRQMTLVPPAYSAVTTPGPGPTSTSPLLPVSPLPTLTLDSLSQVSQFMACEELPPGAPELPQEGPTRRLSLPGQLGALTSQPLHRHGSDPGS
endpointLabel: inhibition at 10 µM (%)
Reply with just the number (in %).

Request: Requested field: inhibition at 10 µM. Item: Cc1ccccc1C(=O)Nc1nc(NC(=O)c2ccccc2C)n(-c2ccc(OC(F)(F)F)cc2)n1
Result: 1
